Test system: OVCAR-3 ovarian
measurement description: NCI tumour cell line growth inhibition, 48 h
assay readout: TGI (µM)
Write it as a number; the unit µM goes unstated.

| cpd smiles | measurement target | assay readout | quantitative readout |
| --- | --- | --- | --- |
| O=C(Nc1ccc(O)c(NS(=O)(=O)c2ccc(F)cc2)c1)c1ccc(-c2ccccc2)cc1 | OVCAR-3 ovarian | TGI | 22.1 |
| O=[N+]([O-])c1ccc(NN=C2c3ccccc3Cc3ccccc32)c([N+](=O)[O-])c1 | OVCAR-3 ovarian | TGI | 5.19 |
| CC#CC(=O)N[C@H]1CCCN(c2c(F)cc(C(N)=O)c3[nH]c(C)c(C)c23)C1 | OVCAR-3 ovarian | TGI | 63.7 |

Let's switch to this compound now.
Q: Value lookup for TGI; key = Cc1ccc(C(=O)c2[nH]c(Nc3ccc(Cl)cc3)c(C(=S)Nc3ccccc3)c2N)cc1
A: 56.8
